- System: K4 kissing-loop RNA reporter;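 note: bound reporter read as fluorescence of individual clusters on recovered sequencing chips by microscopy, with normalized cluster intensities fitted with a binding model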
- experiment_summary: apparent KD of K4 kissing-loop reporter; higher = weaker reporter binding
- cond: Eterna round: R107; input ligand: arginine 13.2 mM
Reported apparent KD of K4 kissing-loop reporter is given for each of the following sequences.

[
  {
    "ordered_residues": "CUUAAGGAGUGUCGUGCCGGACACUGGGAAGGAGCGCAAUUCUUUGCAGGUAGGUCGCCCAGUGAUGUUGGGUCUCGCUGUCGAA [KL-XArg-A20]",
    "endpoint_unit": "nM",
    "apparent KD of K4 kissing-loop reporter": 253
  },
  {
    "ordered_residues": "AAACAUUGGUCGGAUACCAGUUAGACCGAUAGGUCAAAACUGGAGUGAUGUUCCUAAAAUAACCCUUGGCAGCCGACCGAUGAAA [MAT - Same State Theophlline B - Mod of Eli - D5]",
    "endpoint_unit": "nM",
    "apparent KD of K4 kissing-loop reporter": 599
  },
  {
    "ordered_residues": "GGAUAGGACAGAGGAUAUGGACAGUCUACAAAGUAGGCUGAAAAUCCUUGAAUGGAAGUGAUGUUUCUAGAAGGCUGUCCUAUCG [FmnBX 19 - #SwitchBubble #StaticStem #Palindromic]",
    "endpoint_unit": "nM",
    "apparent KD of K4 kissing-loop reporter": 160
  },
  {
    "ordered_residues": "CGUAGAUACUGAGGAUAUCAGAAAUCUGAUAUCAUCAGAGGUCUGAGUGAUGUUCAGAUGCGACUCUGAGAAGGCAGUAGGAGUC [FMN B Ex t2]",
    "endpoint_unit": "nM",
    "apparent KD of K4 kissing-loop reporter": 107
  },
  {
    "ordered_residues": "UGACUGGAUGGAAGGAGCGCUAAACUCCUAGUGAUGUUAGGGAAACGAGACAAAGUCUCGAGGCAGGUAGGUCGCCAUCUAGUCU [FiskerMod 15 - Jieux - Same State - Arginine B]",
    "endpoint_unit": "nM",
    "apparent KD of K4 kissing-loop reporter": 139
  },
  {
    "ordered_residues": "UGAUUGGCAAAAGUAGUGAUGUUACGAAUAUAGGAUAUUAGAGGAAUAAGAAGGAUAAGGGAGAAAUAGGUAAAUUGUUGGUUGG [whbob_SS_FMNA__2th171]",
    "endpoint_unit": "nM",
    "apparent KD of K4 kissing-loop reporter": 48.4
  },
  {
    "ordered_residues": "CCCAAGGGCCUACCGGUAUGAUGGACGGAUACCAGAGGCGAAAGCCUCCCUUGGCAGCCGGGUGUAGUGAUGUUACUCCGGUAGU",
    "endpoint_unit": "nM",
    "apparent KD of K4 kissing-loop reporter": 65.8
  },
  {
    "ordered_residues": "GUAGCACAGUCGGCCGCCACUGUCGGUUCUCCAGUGAUGUUGGAGUUAGUUCGUCGCAGUUCAAACAGGACCGGGACCAUUCCUU [theeternabot_exclusion_KL_Trp_B_26]",
    "endpoint_unit": "nM",
    "apparent KD of K4 kissing-loop reporter": 135
  },
  {
    "ordered_residues": "UUAUAUACGAGUGAUGUUCGUUAUUUAUCAGAGGAUAUGCUUAAAUGCAGAAGGCUGUUUUUCUAUUUGAUAUUAAAUUUUAUAA [JR_Nu3_ExcFMNA_Sub027]",
    "endpoint_unit": "nM",
    "apparent KD of K4 kissing-loop reporter": 89.3
  },
  {
    "ordered_residues": "UGAUAGGACAGAAGGAGCGGAAUCCUGUCAAAGACAGGAAAAUAAAUAAAAGGAGUGAUGUUCCAGGUAGGUCGCUGUCCUAUCU [ArgBX 19 #SwitchBubble #StaticStem]",
    "endpoint_unit": "nM",
    "apparent KD of K4 kissing-loop reporter": 210
  },
  {
    "ordered_residues": "CGGGAAUUAGGUAUCGUCGAAAGCAAGAACCGAGGACCGGUACGGCCGCCACUCGCACCAGUGAUGUUGGUACAUUUGGUAUCCG [theeternabot_sameState_KL_Trp_A_31]",
    "endpoint_unit": "nM",
    "apparent KD of K4 kissing-loop reporter": 112
  },
  {
    "ordered_residues": "AAAAUAAUCCAGUGAUGUUGGUAUACAGAUACCAGCGACGAAAGUCGCCCUUGGCAGCUGUGGACGUACAAAAUAAGUACGUCCU",
    "endpoint_unit": "nM",
    "apparent KD of K4 kissing-loop reporter": 972
  },
  {
    "ordered_residues": "CUUAUGGACUAAGGAUAUGGGUAUACCGGAAGCGCCGUCACGGUAGUGAUGUUACACGCGACGGGACCAGAAGGUAGAUCGCUCC [theeternabot_exclusion_KL_FMN_B_33]",
    "endpoint_unit": "nM",
    "apparent KD of K4 kissing-loop reporter": 96.2
  },
  {
    "ordered_residues": "UGCCGCAAGGCGAGCGCUCCCACUCCGGAAGGAGCGCCCGCAAGGGCAGGUAGGUCGCCGGAGUGAUGUUCCGGUGGAGGGCUCG [#2 Exclusion - Arginine A Attempt #25 (Inspired by Omei)]",
    "endpoint_unit": "nM",
    "apparent KD of K4 kissing-loop reporter": 188
  },
  {
    "ordered_residues": "UGUGGAGGAUAUGAUACCAGCAGUGAGAGAGAGGAAGUAUAGUGAUGUUAUAUGAGAGAAUGCCCUUGGCAGCGUGUGUAGUGGG [SSTheophylB.K]",
    "endpoint_unit": "nM",
    "apparent KD of K4 kissing-loop reporter": 137
  },
  {
    "ordered_residues": "CGACGGAGUGAUGUUUCGUGGUAUGCUGAUACCAGAUGAAACAGCGUCCCUUGGCAGCAGCAUACGCCAAGGAUAAUAUCCUAGU [Theo B SS t6]",
    "endpoint_unit": "nM",
    "apparent KD of K4 kissing-loop reporter": 611
  },
  {
    "ordered_residues": "AAAAUUAAGGCCGAAUUAACUUCUUGCAUACGAGGACCGGUACGGCCGCCACUCGAGUCAAGUGAUGUUUGACAAUCUAUUAUUA [JR_ExcTryptoA_Sub010]",
    "endpoint_unit": "nM",
    "apparent KD of K4 kissing-loop reporter": 124
  },
  {
    "ordered_residues": "UGUACCGAGUCAGGAUAUGGCCGGAAACGGAAUAACCAGUGAUGUUGGAAUAAAUGGCGAAAGCCUCCAGAAGGGACUUGGUACU [FmnBS 18 #SwitchBubble #StaticStem #DoubleMagnetSystem]",
    "endpoint_unit": "nM",
    "apparent KD of K4 kissing-loop reporter": 213
  },
  {
    "ordered_residues": "UGACAUUGCUCAGAUACCAGACAUGAGCAUCAGCCAUGUGCCAAAUAAACGUACAUAAAUGUCCCUUGGCAGCUGAGCAAUGUCU [TheoBX 11]",
    "endpoint_unit": "nM",
    "apparent KD of K4 kissing-loop reporter": 33.2
  },
  {
    "ordered_residues": "CGCUGGAGUGAUGUUCCAGCUUCUACGGAUACCAGCCACGCCAGCGGCCCUUGGCAGCCGCAAAUUGCAGUGAUGUUGUGAUGCC [Same State Theophylline A GF 4]",
    "endpoint_unit": "nM",
    "apparent KD of K4 kissing-loop reporter": 278
  },
  {
    "ordered_residues": "UAAGAUUCUGUCUCAUUGAGACAGAAUCAACGAGGACCGGUACGGCCGCCACUCGGGUCCUAGAGUGAUGUUCUAAUAAUAUAAU [AK1 SS Tryptophan A]",
    "endpoint_unit": "nM",
    "apparent KD of K4 kissing-loop reporter": 350
  },
  {
    "ordered_residues": "UUAGAUGAUUCAUCAAGAUUGAUGAGGAAACGAGGACCGGUACGGCCGCCACUCGAGUGAUGUUCGAGAACCUCAUCAAUCAAUU [AK4.4 Exc Tryptophan A]",
    "endpoint_unit": "nM",
    "apparent KD of K4 kissing-loop reporter": 150
  }
]
